Consider the following binders; for each one, report its binning response (unit not given).
# Study System: T1, DLL3 target antigen coated on Octet SA tips (binning experiment) (Homo sapiens (Human), UniProt Q9NYJ7 27-492, Probably biotinylated for capture on streptavidin (SA) tips. The site is not stated.)
# T1 sequence: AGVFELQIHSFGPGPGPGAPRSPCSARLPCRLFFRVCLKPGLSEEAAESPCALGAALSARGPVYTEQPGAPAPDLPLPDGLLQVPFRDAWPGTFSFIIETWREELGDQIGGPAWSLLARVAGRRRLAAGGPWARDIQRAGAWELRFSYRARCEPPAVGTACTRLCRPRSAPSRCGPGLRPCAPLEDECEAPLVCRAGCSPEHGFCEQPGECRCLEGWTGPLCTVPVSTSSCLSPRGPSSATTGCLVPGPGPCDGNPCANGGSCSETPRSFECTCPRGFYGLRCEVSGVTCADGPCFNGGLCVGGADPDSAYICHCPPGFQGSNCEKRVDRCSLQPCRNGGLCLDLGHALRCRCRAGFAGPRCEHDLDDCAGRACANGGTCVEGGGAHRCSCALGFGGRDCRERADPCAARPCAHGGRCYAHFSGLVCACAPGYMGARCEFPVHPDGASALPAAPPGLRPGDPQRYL
# Method: Octet binning on DLL3-coated SA tips; competitor: 2HCE27
Numbers only.

Binder	binning response (unit not given)
3HCE4 anti-DLL3 VHH (VHH, In the binning assay it was used as a periplasmic extract) VHH: QVQLQESGGGLVQAGASLKLSCAVSGRAGSSYDMGWLRQAPGKEREFVAIITWSGNTAYKDSVKGRFIISRDNAKNTVYLEMNSLAPEDTAVYYCAAALSEKKYEYWGQGTQVTVSS	347
2HCE27 anti-DLL3 VHH (VHH, In the binning assay it was used as a periplasmic extract; also called anti-DLL3 (2HCE27)) VHH: QVQLQESGGGLVQAGGSLRLSCAASGRTFRSYAMGWFRQAPGKEREFIAVIIMSDGSTSYADSVKGRFTISRDNAKNTLYLQMNSLKPEDTAVYYCAARRDYFTGVYDYWGQGTQVTVSS	0

Next, consider the following binder.
Request: Looking for the measured binning response (unit not given) of 2HCE117 anti-DLL3 VHH (VHH, In the binning assay it was used as a periplasmic extract) VHH: QVQLQESGGGLVQPGGSLRLSCAASGFTFSSYAMSWVRQAPGKGLEWVSDINSGGGSTYYADSVKGRFTISRDNAKNTLYLQMDSLKPEDTAVYYCATPFEIGSWGQGTQVTVSS , can you help?
Result: -73
